tested on: split SAH aptamer P152/P218, Eu construct; experiment: split aptamer SAH TR-FRET assay, Eu construct; assay type: binding, D. aromatica

# Compound, Unit Descriptor, EC50
rows = [
    ("Nc1ncnc2c1ncn2[C@@H]1O[C@H](CSCC[C@H](N)C(=O)O)[C@@H](O)[C@H]1O [SAH, S-adenosylhomocysteine]", "nM", 16),
]

----------
test system: Dar-1 riboswitch; test: SAH dependent switch with FP readout, intact riboswitch with fluor-labeled oligo; assay type: binding, D. aromatica; conditions: after 3 h; FP dose response; read-out: EC50 for SAH after 3 h
pEC50: −log10 of the molar value.
Observed Property: pEC50

# Smiles Data, Data Value
records = [
    ("Nc1ncnc2c1ncn2[C@@H]1O[C@H](CSCC[C@H](N)C(=O)O)[C@@H](O)[C@H]1O", 5.72),
]
